Values were extracted from ChEMBL document CHEMBL5518235.

# Procedure text: Metabolic stability in human liver microsomes assessed as unbound intrinsic clearance at 1 uM incubated for 30 mins in presence of NADPH by LC-MS/MS analysis
# Type: ADME, Microsome
# Run parameters: 0.5 h
Property measured: CL free (µL/min/mg)

INSERT INTO measurements (compound, recorded_measurement) VALUES
  ('COc1cc(F)c(-c2ccc(C(=O)O)cc2)cc1C(=O)N[C@H]1[C@@H](C(=O)Nc2cccc(S(=O)(=O)C(F)(F)F)c2)[C@@H]2C=C[C@H]1C2 (racemic)', 121);

1: COc1cc(F)c(-c2ccc(C(=O)O)cc2)cc1C(=O)N[C@@H]1[C@H](C(=O)Nc2cccc(S(=O)(=O)C(F)(F)F)c2)[C@H]2C=C[C@@H]1C2
2: COc1cnc(-c2ccc(C(=O)O)cc2)cc1C(=O)N[C@H]1[C@@H](C(=O)Nc2cccc(S(=O)(=O)C(F)(F)F)c2)[C@@H]2C=C[C@H]1C2 (racemic)
[in] Lab note: check whether 1 or 2 shows the higher recorded CL free. API: response body contains the label of the selected item.
[out] 1
